APPLIED_CONDITIONS: in ethanol, 323.65 K
PROPERTY_NAME: solubility (mole fraction)

So, "COc1cc([N+](=O)[O-])c(OC)cc1Cl" ? Its solubility (mole fraction) was 0.00409

====

APPLIED_CONDITIONS: in o-xylene, 317.55 K
PROPERTY_NAME: solubility (mole fraction)

So, "COc1cc(Cl)c(OC)cc1N" ? Its solubility (mole fraction) was 0.0358

====

APPLIED_CONDITIONS: in o-xylene, 296.05 K
PROPERTY_NAME: solubility (mole fraction)
Numbers only.

So, "COc1cc(Cl)c(OC)cc1N" ? Its solubility (mole fraction) was 0.0136

====

APPLIED_CONDITIONS: in m-xylene, 279.95 K
PROPERTY_NAME: solubility (mole fraction)
Answers are plain numbers.

So, "COc1cc([N+](=O)[O-])c(OC)cc1Cl" ? Its solubility (mole fraction) was 0.00788

====

APPLIED_CONDITIONS: in methanol, 320.75 K
PROPERTY_NAME: solubility (mole fraction)
Numbers only.

So, "COc1cc([N+](=O)[O-])c(OC)cc1Cl" ? Its solubility (mole fraction) was 0.00318

====

APPLIED_CONDITIONS: in ethanol, 279.35 K
PROPERTY_NAME: solubility (mole fraction)
Numbers only.

So, "COc1cc(Cl)c(OC)cc1N" ? Its solubility (mole fraction) was 0.00274
